Target: Epidermal growth factor receptor [1-18,20-1210,T790M,C797S] (Human, UniProt P00533, T790M/C797S)
Construct: 1-18,20-1210
Assay: Kinase Inhibition Assay
Each entry below lists one item and its recorded IC50 value.
quantity: IC50 (nM)

INSERT INTO measurements (smilesentry, quantity, measured) VALUES
  ('CCc1cc(Nc2ncc(Br)c(Nc3ccc4ncccc4c3P(C)(C)=O)n2)c(OC)cc1N1CCC(N2CCN(C)CC2)CC1', 'IC50', 0.2),
  ('COc1cc(N2CCC(N3CCN(C)CC3)CC2)c(C)cc1Nc1ncc(Br)c(Nc2ccc3nc(C4CC4)ccc3c2P(C)(C)=O)n1', 'IC50', 0.3);

Data provenance is BindingDB's records for patent US20240352053.
